system: MDA-MB468; assay: SRB antiproliferative assay, MDA-MB468; assay type: cell-based, human; conditions: Homo sapiens, MDA-MB-468, 48 h
Records here are stratified by GI50; strata: low: < 8 µM; medium: ≥ 8 µM and < 20 µM; high: ≥ 20 µM

O=S(=O)(NCCCNc1ccnc2cc(C(F)(F)F)ccc12)c1ccc(-c2ccccc2)cc1
low
O=S(=O)(c1ccc(Cl)cc1Cl)N1CCN(c2ccnc3cc(Cl)ccc23)CC1
high
COC(=O)c1sccc1S(=O)(=O)N1CCN(c2ccnc3cc(Cl)ccc23)CC1
high
O=[N+]([O-])c1cccc(S(=O)(=O)N2CCN(c3ccnc4cc(Cl)ccc34)CC2)c1
medium
CS(=O)(=O)NCCCNc1ccnc2cc(Cl)ccc12
high
Cc1ccc(S(=O)(=O)N2CCN(c3ccnc4cc(C(F)(F)F)ccc34)CC2)cc1
high

QUERY: Entry `O=S(=O)(c1ccc(Cl)cc1)N1CCN(c2ccnc3cc(Cl)ccc23)CC1` belongs to which category?
RESULT: medium

QUERY: What about this compound? `O=[N+]([O-])c1cccc(S(=O)(=O)N2CCN(c3ccnc4cc(C(F)(F)F)ccc34)CC2)c1`
RESULT: medium

QUERY: Also, `CN(C)c1cccc2c(S(=O)(=O)NCCCNc3ccnc4cc(Cl)ccc34)cccc12` please.
RESULT: low

QUERY: `COC(=O)c1sccc1S(=O)(=O)N1CCN(c2ccnc3cc(C(F)(F)F)ccc23)CC1` , same question.
RESULT: high

QUERY: Also `O=S(=O)(c1ccc(Cl)cc1Cl)N1CCN(c2ccnc3cc(C(F)(F)F)ccc23)CC1` ?
RESULT: medium

----------
Measured melting point by item

Past entries and their recorded results:
CN(C)c1cccc2c(S(=O)(=O)NCCCNc3ccnc4cc(C(F)(F)F)ccc34)cccc12
199 to 201 °C
O=S(=O)(c1ccc(Cl)cc1Cl)N1CCN(c2ccnc3cc(C(F)(F)F)ccc23)CC1
137 to 139 °C

QUERY: Could you tell me which melting point is on file for `O=S(=O)(NCCCNc1ccnc2cc(Cl)ccc12)c1ccc(-c2ccccc2)cc1` ?
RESULT: 116 to 118 °C

QUERY: Okay, and `COC(=O)c1sccc1S(=O)(=O)N1CCN(c2ccnc3cc(Cl)ccc23)CC1` ?
RESULT: 117 to 119 °C

QUERY: Entry `COC(=O)c1sccc1S(=O)(=O)NCCCNc1ccnc2cc(C(F)(F)F)ccc12` please
RESULT: 137 to 139 °C

QUERY: Then what about the compound `CN(C)c1cccc2c(S(=O)(=O)N3CCN(c4ccnc5cc(Cl)ccc45)CC3)cccc12` ?
RESULT: 145 to 147 °C

QUERY: Similarly, `O=S(=O)(c1ccc(-c2ccccc2)cc1)N1CCN(c2ccnc3cc(Cl)ccc23)CC1` ?
RESULT: 238 to 240 °C

QUERY: Likewise for `COC(=O)c1sccc1S(=O)(=O)N1CCN(c2ccnc3cc(C(F)(F)F)ccc23)CC1` ?
RESULT: 117 to 119 °C

----------
Target: Chymotrypsin-like proteasome activity in HeLa S3 cell lysates (Homo sapiens, UniProt P28074)
Construct: proteasomes were extracted in 0.5% NP40 buffer; endogenous in cells
Experiment: Proteasome activity assay, chymotrypsin-like
Settings: read-out: Inhibition (IC50) Chymotrypsin-like
Description: Exponentially growing HeLa S3 cells were plated on 96-well plates. After overnight incubation, the cells were treated with different concentrations of drugs for 6 hours or left untreated (control). At the end of 6 hours, proteasomes were extracted in 0.5% NP40 buffer, and equal amounts of samples were incubated with 25 μM of fluorogenic substrates purchased from Boston Biochem (Cambridge Mass.). […] Fluorescence was monitored every 5 min at the wavelength of 360 nm (excitation) and 480 nm (emission). […]
reported-property: pIC50
Scale for pIC50: -log10 of concentration given in mol/L; no unit attached.

QUERY: So what does the record say about pIC50 for `O=[N+]([O-])c1ccc(S(=O)(=O)N2CCN(c3ccnc4cc(Cl)ccc34)CC2)c([N+](=O)[O-])c1` ?
RESULT: 7.00

Cited source for all entries: patent US9975852B2
